// values below are reported koff
biological target: T1, cynomolgus soluble urokinase plasminogen activator receptor (suPAR) (cynomolgus, UniProt Q9GK78 23-303, limits assumed); test: BLI (Octet) off-rate screen of scFv clones
T1 construct: Column head says only 'cynomologus'; also called cynomolgus suPAR; cynomolgus uPAR
T1 sequence (Q9GK78 23-303 limits assumed): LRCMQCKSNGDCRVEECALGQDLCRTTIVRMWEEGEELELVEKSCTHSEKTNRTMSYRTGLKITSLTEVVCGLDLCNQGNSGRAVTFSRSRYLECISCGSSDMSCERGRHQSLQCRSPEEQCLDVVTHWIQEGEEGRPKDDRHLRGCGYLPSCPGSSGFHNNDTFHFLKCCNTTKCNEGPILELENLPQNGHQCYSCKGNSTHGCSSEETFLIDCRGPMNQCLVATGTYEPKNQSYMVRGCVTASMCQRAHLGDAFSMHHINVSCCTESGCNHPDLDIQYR
Quick note: unit goes after the number.

Some solved cases for reference:
[
  {
    "binder": "suPAR_DB02_F03 (scFv, V domains shown, scFv clone from phage display) VH: QVQLVQSGAEVKKPGASVKVSCKASGYTFTSYYVHWVRQAPGQGLEWMGWIDPEGGSTIYDQKFQGRVTMTRDTSTSTVYMELSSLRSEDTAVYYCARGYDVDWFVYWGQGTLVTVSS VL: DIQMTQSPSSLSASVGDRVTITCSARSSVSYMYWYQQKPGKAPKLLIYRTSSLQSGVPSRFSGSGSGTDFTLTISSLQPEDFATYYCQQYHSYPPTFGGGTKVEIK",
    "endpoint-value": "0.000492 s⁻¹"
  },
  {
    "binder": "suPAR_DB02_H03 (scFv, V domains shown, scFv clone from phage display) VH: QVQLVQSGAEVKKPGASVKVSCKASGYTFTTYYMHWVRQAPGQGLEWMGWIDPEGGSTIYDQKFQGRVTMTRDTSTSTVYMELSSLRSEDTAVYYCARGYDVDWFVYWGQGTLVTVSS VL: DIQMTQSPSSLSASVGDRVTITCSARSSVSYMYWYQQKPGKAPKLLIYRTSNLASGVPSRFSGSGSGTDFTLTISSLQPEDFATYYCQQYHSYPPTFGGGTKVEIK",
    "endpoint-value": "0.000524 s⁻¹"
  },
  {
    "binder": "suPAR_DB02_G03 (scFv, V domains shown, scFv clone from phage display) VH: QVQLVQSGAEVKKPGASVKVSCKASGYTFTSYYMHWVRQAPGQGLEWMGWIDPENGNTIYDQKFQGRVTMTRDTSTSTVYMELSSLRSEDTAVYYCARGYDVDWFVYWGQGTLVTVSS VL: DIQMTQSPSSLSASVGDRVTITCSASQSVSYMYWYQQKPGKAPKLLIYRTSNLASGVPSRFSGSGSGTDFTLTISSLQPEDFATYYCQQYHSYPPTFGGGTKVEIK",
    "endpoint-value": "0.00025 s⁻¹"
  },
  {
    "binder": "suPAR_DB02_G09 (scFv, V domains shown, scFv clone from phage display) VH: QVQLVQSGAEVKKPGASVKVSCKASGFTIKDYYMHWVRQAPGQGLEWMGWIDPSNGATNSAQNFQGRVTMTRDTSTSTVYMELSSLRSEDTAVYYCARGYDVDWFVYWGQGTLVTVSS VL: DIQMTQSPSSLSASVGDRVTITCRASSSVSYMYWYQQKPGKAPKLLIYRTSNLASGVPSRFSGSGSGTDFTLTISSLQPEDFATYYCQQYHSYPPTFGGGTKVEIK",
    "endpoint-value": "0.00025 s⁻¹"
  }
]

Next, consider the following binder.
INPUT: Query (binder): suPAR_DB02_H05 (scFv, V domains shown, scFv clone from phage display) VH: QVQLVQSGAEVKKPGASVKVSCKASGYFFTAYYMHWVRQAPGQGLEWMGWIDPENGNTIYDQKFQGRVTMTRDTSTSTVYMELSSLRSEDTAVYYCARGYDVDWFVYWGQGTLVTVSS VL: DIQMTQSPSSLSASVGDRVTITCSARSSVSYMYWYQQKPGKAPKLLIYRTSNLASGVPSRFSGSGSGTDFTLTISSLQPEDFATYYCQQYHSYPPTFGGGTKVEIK ; field requested: koff
OUTPUT: 0.00021 s⁻¹
